The origin of these recorded values is patent US20260109715A1.

# target: human SMG1 enzyme (Homo sapiens, UniProt Q96Q15)
# Sequence (Q96Q15 whole entry): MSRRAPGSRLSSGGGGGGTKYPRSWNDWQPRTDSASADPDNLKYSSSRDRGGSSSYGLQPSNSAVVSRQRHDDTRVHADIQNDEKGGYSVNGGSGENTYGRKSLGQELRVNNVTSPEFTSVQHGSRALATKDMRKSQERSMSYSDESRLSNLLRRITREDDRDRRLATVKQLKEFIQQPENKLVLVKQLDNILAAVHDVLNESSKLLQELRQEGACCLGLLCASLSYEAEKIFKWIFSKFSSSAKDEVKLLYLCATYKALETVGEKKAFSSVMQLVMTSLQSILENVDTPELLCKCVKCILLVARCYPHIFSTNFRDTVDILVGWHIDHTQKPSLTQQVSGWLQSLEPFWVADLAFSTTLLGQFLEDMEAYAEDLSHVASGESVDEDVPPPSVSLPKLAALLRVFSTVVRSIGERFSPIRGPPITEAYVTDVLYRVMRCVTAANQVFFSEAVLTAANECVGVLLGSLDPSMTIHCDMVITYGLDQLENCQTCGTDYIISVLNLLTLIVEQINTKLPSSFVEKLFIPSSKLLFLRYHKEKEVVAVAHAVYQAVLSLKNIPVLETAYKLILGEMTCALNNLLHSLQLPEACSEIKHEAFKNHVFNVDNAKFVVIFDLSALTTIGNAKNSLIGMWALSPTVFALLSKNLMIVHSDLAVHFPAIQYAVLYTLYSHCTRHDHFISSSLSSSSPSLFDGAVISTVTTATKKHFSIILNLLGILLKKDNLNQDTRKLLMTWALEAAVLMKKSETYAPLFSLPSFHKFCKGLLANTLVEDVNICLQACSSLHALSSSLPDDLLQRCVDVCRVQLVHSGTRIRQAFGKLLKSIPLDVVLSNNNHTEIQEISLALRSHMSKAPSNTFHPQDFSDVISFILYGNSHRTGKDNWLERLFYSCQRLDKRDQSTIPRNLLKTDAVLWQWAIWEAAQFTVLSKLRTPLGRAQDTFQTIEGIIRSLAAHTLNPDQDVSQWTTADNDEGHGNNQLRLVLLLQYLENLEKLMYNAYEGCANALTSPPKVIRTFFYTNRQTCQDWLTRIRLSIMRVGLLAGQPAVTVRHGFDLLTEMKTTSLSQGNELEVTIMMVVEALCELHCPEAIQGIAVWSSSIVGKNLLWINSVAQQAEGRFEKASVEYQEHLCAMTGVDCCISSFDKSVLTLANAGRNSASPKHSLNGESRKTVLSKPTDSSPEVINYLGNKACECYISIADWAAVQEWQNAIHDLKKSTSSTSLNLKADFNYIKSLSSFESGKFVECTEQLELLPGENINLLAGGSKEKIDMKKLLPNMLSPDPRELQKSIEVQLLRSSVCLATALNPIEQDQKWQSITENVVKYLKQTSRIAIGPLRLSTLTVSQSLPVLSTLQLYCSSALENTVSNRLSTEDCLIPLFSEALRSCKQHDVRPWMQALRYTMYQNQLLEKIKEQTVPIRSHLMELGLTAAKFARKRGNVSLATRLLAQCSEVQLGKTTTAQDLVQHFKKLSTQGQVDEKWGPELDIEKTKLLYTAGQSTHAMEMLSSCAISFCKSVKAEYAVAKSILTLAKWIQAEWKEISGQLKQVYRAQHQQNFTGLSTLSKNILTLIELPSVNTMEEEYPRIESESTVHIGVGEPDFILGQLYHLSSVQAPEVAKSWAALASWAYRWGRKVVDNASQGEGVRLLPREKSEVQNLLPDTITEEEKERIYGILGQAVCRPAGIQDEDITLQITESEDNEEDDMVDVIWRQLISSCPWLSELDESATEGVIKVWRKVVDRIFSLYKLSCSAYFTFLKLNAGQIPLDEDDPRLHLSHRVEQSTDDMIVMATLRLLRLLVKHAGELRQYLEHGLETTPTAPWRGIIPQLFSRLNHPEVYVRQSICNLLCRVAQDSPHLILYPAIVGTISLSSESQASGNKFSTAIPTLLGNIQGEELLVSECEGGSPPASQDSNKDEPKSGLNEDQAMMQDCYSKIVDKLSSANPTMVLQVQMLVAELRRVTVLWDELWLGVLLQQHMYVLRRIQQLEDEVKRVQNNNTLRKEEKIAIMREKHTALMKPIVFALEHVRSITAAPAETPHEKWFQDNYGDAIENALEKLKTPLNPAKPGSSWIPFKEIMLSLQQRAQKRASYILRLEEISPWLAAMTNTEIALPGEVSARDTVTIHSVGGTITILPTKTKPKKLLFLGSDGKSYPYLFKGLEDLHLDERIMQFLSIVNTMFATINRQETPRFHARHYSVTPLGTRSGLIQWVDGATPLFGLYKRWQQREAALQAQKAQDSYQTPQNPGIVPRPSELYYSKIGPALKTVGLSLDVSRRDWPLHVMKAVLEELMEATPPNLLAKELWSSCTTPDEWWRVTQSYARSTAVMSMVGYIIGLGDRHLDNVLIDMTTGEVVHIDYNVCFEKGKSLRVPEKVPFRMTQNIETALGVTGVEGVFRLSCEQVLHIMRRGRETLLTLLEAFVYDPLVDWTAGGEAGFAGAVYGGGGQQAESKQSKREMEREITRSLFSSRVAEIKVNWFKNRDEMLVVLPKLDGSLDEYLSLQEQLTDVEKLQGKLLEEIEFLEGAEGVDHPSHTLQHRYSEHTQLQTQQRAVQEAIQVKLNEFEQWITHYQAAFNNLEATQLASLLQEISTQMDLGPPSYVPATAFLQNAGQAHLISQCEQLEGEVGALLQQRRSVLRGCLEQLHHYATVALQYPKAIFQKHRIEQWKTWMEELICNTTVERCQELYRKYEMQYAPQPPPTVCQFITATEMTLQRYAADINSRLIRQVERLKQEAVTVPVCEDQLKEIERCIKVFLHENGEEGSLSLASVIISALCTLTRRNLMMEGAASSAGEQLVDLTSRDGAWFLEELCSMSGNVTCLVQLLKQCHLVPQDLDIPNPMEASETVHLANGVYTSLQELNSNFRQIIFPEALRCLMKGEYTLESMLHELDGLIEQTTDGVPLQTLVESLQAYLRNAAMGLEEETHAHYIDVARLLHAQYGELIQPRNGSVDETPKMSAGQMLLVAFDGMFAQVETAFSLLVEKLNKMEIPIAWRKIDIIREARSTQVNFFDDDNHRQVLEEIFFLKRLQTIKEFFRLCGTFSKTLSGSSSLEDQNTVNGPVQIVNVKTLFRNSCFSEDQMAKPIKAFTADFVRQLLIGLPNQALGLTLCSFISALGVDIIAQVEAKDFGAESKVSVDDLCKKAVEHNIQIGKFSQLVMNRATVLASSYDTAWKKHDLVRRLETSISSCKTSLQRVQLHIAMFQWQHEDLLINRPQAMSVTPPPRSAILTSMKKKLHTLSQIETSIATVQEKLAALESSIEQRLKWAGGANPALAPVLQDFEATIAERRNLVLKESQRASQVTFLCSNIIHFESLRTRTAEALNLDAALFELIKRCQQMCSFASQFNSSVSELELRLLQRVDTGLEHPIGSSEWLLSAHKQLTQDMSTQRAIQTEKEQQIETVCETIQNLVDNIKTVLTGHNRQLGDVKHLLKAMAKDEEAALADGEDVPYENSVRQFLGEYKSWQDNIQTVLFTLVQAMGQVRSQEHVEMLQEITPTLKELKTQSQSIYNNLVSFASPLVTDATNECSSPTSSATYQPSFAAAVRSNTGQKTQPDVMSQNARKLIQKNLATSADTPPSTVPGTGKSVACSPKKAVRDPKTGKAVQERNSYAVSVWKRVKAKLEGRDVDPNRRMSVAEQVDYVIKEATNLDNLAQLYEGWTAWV
Quick reference: IC50 of the listed items.
Report the figure in nM without appending any unit label.

Look over these answered cases.
molecule: [2H]C([2H])([2H])Oc1ccccc1-c1nccc2[nH]c(=O)c(-c3nc4c(N=S(C)(C)=O)nc(Cl)cc4[nH]3)cc12 [Example 44]
target: human SMG1 enzyme (Homo sapiens, UniProt Q96Q15)
unitText: nM
IC50: 0.5
//
molecule: [2H]C([2H])([2H])Oc1ccccc1-c1nccc2[nH]c(=O)c(-c3nc4c(C5CC5)nc(Cl)cc4[nH]3)cc12 [Example 39]
target: human SMG1 enzyme (Homo sapiens, UniProt Q96Q15)
unitText: nM
IC50: 1.9
//
molecule: CCc1nc(Cl)cc2[nH]c(-c3cc4c(-c5cnc(OC(F)F)cc5OC)nccc4[nH]c3=O)nc12.CS(=O)(=O)O [Example 146, methanesulfonate]
target: human SMG1 enzyme (Homo sapiens, UniProt Q96Q15)
unitText: nM
IC50: 0.49
//
molecule: CS(=O)(=O)O.Cc1nc(Cl)cc2[nH]c(-c3cc4c(-c5ccccc5OC(F)F)nccc4[nH]c3=O)nc12 [Example 132, methanesulfonate]
target: human SMG1 enzyme (Homo sapiens, UniProt Q96Q15)
unitText: nM
IC50: 3.5
//
molecule: COc1ncc(-c2nccc3[nH]c(=O)c(-c4nc5c(NCC(F)F)nc(Cl)cc5[nH]4)cc23)c(OC)n1 [Example 72]
target: human SMG1 enzyme (Homo sapiens, UniProt Q96Q15)
unitText: nM
IC50: 0.81
//
molecule: CCc1nc(Cl)cc2[nH]c(-c3cc4c(-c5cnc(C)cc5OC)nccc4[nH]c3=O)nc12 [Example 60]
target: human SMG1 enzyme (Homo sapiens, UniProt Q96Q15)
unitText: nM
IC50: 0.7

Could you now look at the following molecule, please?
Query: // map COc1cc(C(C)C)ncc1-c1nccc2[nH]c(=O)c(-c3nc4cnc(Cl)cc4[nH]3)cc12 [Example 61] to recorded IC50 (system: human SMG1 enzyme (Homo sapiens, UniProt Q96Q15))
Result: 1.4

----------
// IC50 collected for UniProt Q96Q15
Report the figure in nM without appending any unit label.

Query: Need IC50, item CS(=O)(=O)O.Cc1c(-c2nccc3[nH]c(=O)c(-c4nc5c(N[C@H](C)C(F)(F)F)nc(Cl)cc5[nH]4)cc23)cnn1C [Example 152, methanesulfonate]
Result: 1.1

Query: Need IC50, item C[C@@H](Nc1nc(Cl)cc2[nH]c(-c3cc4c(N5CCC(N(C)C)CC5)nccc4[nH]c3=O)nc12)C(F)(F)F [Example 8]
Result: 1.8

Query: Need IC50, item CCc1nc(Cl)cc2[nH]c(-c3cc4c(-c5cnc(C(F)F)cc5OC)nccc4[nH]c3=O)nc12.CS(=O)(=O)O [Example 141, methanesulfonate]
Result: 0.37

Query: Need IC50, item O=c1[nH]c2ccnc(-c3cccc(CN4C5CCC4COC5)c3)c2cc1-c1nc2cnc(Cl)cc2[nH]1 [Example 47]
Result: 2.1

Query: Need IC50, item CCCc1nc(Cl)cc2[nH]c(-c3cc4c(C)nccc4[nH]c3=O)nc12 [Example 20]
Result: 2

----------
# target: human SMG1 enzyme (Homo sapiens, UniProt Q96Q15)
Where a name gives a salt, the structure may show the parent alone.
Quick reference: pIC50 of the listed items.
The scale used: pIC50 is minus the common logarithm of the concentration in molar units.

compound: CS(=O)(=O)O.Cc1c(-c2nccc3[nH]c(=O)c(-c4nc5c(C6CCOCC6)nc(Cl)cc5[nH]4)cc23)c(C2CC2)nn1C(F)F [Example 153, methanesulfonate]
target: human SMG1 enzyme (Homo sapiens, UniProt Q96Q15)
pIC50: 9.02

compound: COc1cc(C2CC2)ncc1-c1nccc2[nH]c(=O)c(-c3nc4c(C)nc(Cl)cc4[nH]3)cc12.CS(=O)(=O)O [Example 140, methanesulfonate]
target: human SMG1 enzyme (Homo sapiens, UniProt Q96Q15)
pIC50: 9.00

compound: O=c1[nH]c2ccnc(-c3ccccc3Cl)c2cc1-c1nc2cnc(Cl)cc2[nH]1
target: human SMG1 enzyme (Homo sapiens, UniProt Q96Q15)
pIC50: 8.70

Query: // map COc1ncccc1-c1nccc2[nH]c(=O)c(-c3nc4c(NCC(F)F)nc(Cl)cc4[nH]3)cc12.CS(=O)(=O)O [Example 143, methanesulfonate] to recorded pIC50 (system: human SMG1 enzyme (Homo sapiens, UniProt Q96Q15))
Result: 9.07

Query: // map Cc1nn2c(C)c1-c1nccc3[nH]c(=O)c(cc13)-c1nc3c(nc(Cl)cc3[nH]1)N(C)CCCN(C)C(=O)C2C (centres unmarked) to recorded pIC50 (system: human SMG1 enzyme (Homo sapiens, UniProt Q96Q15))
Result: 8.96

Query: // map "O=c1[nH]c2ccncc2cc1-c1nc2c(N3CCOC[C@H]3C(F)F)nc(Cl)cc2[nH]1" to recorded pIC50 (system: human SMG1 enzyme (Homo sapiens, UniProt Q96Q15))
Result: 8.62

Query: // map "COc1cc(C(C)(F)F)ncc1-c1nccc2[nH]c(=O)c(-c3nc4c(C)nc(Cl)cc4[nH]3)cc12" to recorded pIC50 (system: human SMG1 enzyme (Homo sapiens, UniProt Q96Q15))
Result: 9.16

Query: // map Cc1ccccc1-c1nccc2[nH]c(=O)c(-c3nc4c(N5CCCC(N)C5)nc(Cl)cc4[nH]3)cc12 (centres unmarked) [Example 56, hydrochloride] to recorded pIC50 (system: human SMG1 enzyme (Homo sapiens, UniProt Q96Q15))
Result: 9.28

Query: // map NC1CN(c2nc(Cl)cc3[nH]c(-c4cc5cnccc5[nH]c4=O)nc23)CC(F)(F)C1 (centres unmarked) [Example 9, trifluoroacetate] to recorded pIC50 (system: human SMG1 enzyme (Homo sapiens, UniProt Q96Q15))
Result: 8.40

Query: // map CCc1nccc2[nH]c(=O)c(-c3nc4c(N5CC[C@H](O)[C@H]5C)nc(Cl)cc4[nH]3)cc12 [Example 122, methanesulfonate] to recorded pIC50 (system: human SMG1 enzyme (Homo sapiens, UniProt Q96Q15))
Result: 8.66

Query: // map O=c1[nH]c2ccnc(C3CCCCN(S(=O)(=O)c4ccccc4)C3)c2cc1-c1nc2cnc(Cl)cc2[nH]1 (centres unmarked) to recorded pIC50 (system: human SMG1 enzyme (Homo sapiens, UniProt Q96Q15))
Result: 8.60
